Parameter: Inhibition at 100 µM. Scope: all listed entries.
# experimental.target: SARS-CoV-2 3CL protease (Severe acute respiratory syndrome coronavirus 2, UniProt P0DTD1)
# Type: biochemical
# condition.details: 100 µM compound
quantity.measured: Inhibition at 100 µM (%)

>>> print(df.to_string())
                                   compound  measure_unit  recorded_measurement
0  O=C(NCc1ccc(F)c(CO)c1)c1cccnc1S [Z1501229042]             %                   100
1  Cc1ccccc1CN1CCCN(C(=O)CCl)CC1 [Z2651952322]             %                    91
2  CN1C(=O)CCc2cc(C(=O)CCl)ccc21 [Z2491497303]             %                    87
3  CN1Cc2cc(C(=O)CCl)ccc2NC1=O [Z2491497315]             %                    95
4   O=C(NCc1ncccc1F)c1cccnc1S [Z1499268500]             %                   100
5  O=C(CCl)c1ccc2c(c1)CCN(C(=O)C(F)(F)F)C2 [Z1723943157]             %                    81
6                  Nc1cccnc1S [Z1741977862]             %                   100
7  O=C(NCCC1=CCOCC1)c1cccnc1S [Z1510476385]             %                    99

###

# experimental.target: SARS-CoV-2 3CL protease (Severe acute respiratory syndrome coronavirus 2)
# Format: biochemical
# condition.details: dose-response retest of fragment hits, Figure S1 and S2
pIC50: −log10 of the molar value.
quantity.measured: pIC50

>>> print(df.to_string())
                                    compound  quantity_measured  recorded_measurement
 0                O=C(NCCc1ccc(F)cc1)n1ccnc1              pIC50                  4.56
 1                O=C(CCl)N1CCN(Cc2cccs2)CC1              pIC50                  4.32
 2                                Nc1nccnc1S              pIC50                  4.63
 3  O=C(CCl)N1CCOC(c2ccc(F)cc2)C1 (stereo not drawn)              pIC50                  4.74
 4               CN1Cc2cc(C(=O)CCl)ccc2NC1=O              pIC50                  4.62
 5                O=C(NCCC1=CCOCC1)c1cccnc1S              pIC50                  4.50
 6           CC1(C)C(=O)Nc2ccc(C(=O)CCl)cc21              pIC50                  4.54
 7    O=C(CCl)N1CCN(c2ccccc2[N+](=O)[O-])CC1              pIC50                  4.35
 8                     NS(=O)(=O)c1ccc(S)nc1              pIC50                  4.65
 9               O=C(CCl)c1ccc(N2CCCC2=O)cc1              pIC50                  4.85
10                   O=C(c1ccc(S)nc1)N1CCCC1              pIC50                  4.62
11   O=C(CCl)c1ccc2c(c1)CCN(C(=O)C(F)(F)F)C2              pIC50                  4.84
12                                Nc1cccnc1S              pIC50                  4.82
13                Cc1cnccc1CCNC(=O)c1cccnc1S              pIC50                  4.69
14              Cc1ccccc1CN1CCN(C(=O)CCl)CC1              pIC50                  4.45
15             CN1C(=O)CCc2cc(C(=O)CCl)ccc21              pIC50                  4.31
16                            OCCc1cnc(S)nc1              pIC50                  4.63
17             N#C/C=C/S(=O)(=O)c1ccc(Cl)cc1              pIC50                  4.75
